Test system: HT-29
procedure summary: Cytotoxicity against human HT29 cells
Assay type: functional
conditions used: read-out: ED50 (the source's name)
Item-by-item account of EC50
Numeric only. Scale: µg/mL

CC(=O)O[C@H]1CC=C(C)[C@@H]2[C@@H](OC(C)=O)[C@]34O[C@]3(C)C(=O)O[C@H]4/C=C(/C)CC[C@@H](OC(C)=O)[C@@]12C [BRIAREOLIDE H]; 0.29
CC(=O)O[C@H]1C[C@@H]2O[C@]2(C)[C@@H]2[C@@H](OC(C)=O)[C@]34O[C@]3(C)C(=O)O[C@H]4/C=C(/C)CC[C@@H](OC(C)=O)[C@@]12C; 10.1

// recorded EC50 for CC(=O)O[C@H]1C[C@@H]2O[C@]2(C)[C@@H]2[C@@H](O)[C@]34O[C@]3(C)C(=O)O[C@H]4/C=C(/C)CC[C@@H](OC(C)=O)[C@@]12C : 6.96

// recorded EC50 for CC(=O)O[C@H]1CC=C(C)[C@@H]2[C@@H](O)[C@]34O[C@]3(C)C(=O)O[C@H]4/C=C(/C)CC[C@@H](OC(C)=O)[C@@]12C : 8.27

Recorded values, source ChEMBL document CHEMBL1158246.
